target: T1, VEGFR-1-Fc (UniProt P17948 27-338); assay: receptor-Fc IP
T1 construct: domain: first three Ig domains; expressed in Drosophila S2 cells, purified on Protein A sepharose; also called VEGFR-1-Fc fusion protein; not shown: Fc fragment from the Signal-pIgPlus vector
T1 sequence (P17948 27-338): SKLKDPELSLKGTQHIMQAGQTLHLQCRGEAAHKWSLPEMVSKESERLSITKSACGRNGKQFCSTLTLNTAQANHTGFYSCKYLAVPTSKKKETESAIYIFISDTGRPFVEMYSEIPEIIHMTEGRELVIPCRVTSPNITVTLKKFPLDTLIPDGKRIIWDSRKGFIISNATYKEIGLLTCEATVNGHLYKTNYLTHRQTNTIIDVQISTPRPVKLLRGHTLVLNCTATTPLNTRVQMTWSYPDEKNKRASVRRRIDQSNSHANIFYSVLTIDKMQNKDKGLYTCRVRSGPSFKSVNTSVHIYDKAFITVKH
readout_name: binding result

Record excerpt, results attached:
83-1 (ligand) AHYNTEILKFMDVYQRSYCHPIETLVDIFQEYPDEIEYIFKPPCVSVYRCGGCCNDEGLECVPTEESNITMQIMRIKPHQGQHIGEMSFLQHNKCECRPKKD = binds
11-3 (ligand) GQNHHEVVKFMDVYQRSYCHPIETLVDIFQEYPDEIEYIFKPSCVPLMRCGGCCNSEGLQCVPTEESNITMQIMRIKPHQGQHIGEMSFLQHNKCECRPKKD = binds
62-16 (ligand) GQNHHEVVKFMDVYQRSYCHPREVCIDVGKEFGVATNTFFKPPCVSVYRCGGCCNSEGLQCMNTSTSYLSKTLFEITVPLSQGPKPVTISFANHTSCRCMSKLD = no binding
22-3 (ligand) AHYNTEILKSIDNEWRKTQCMPREVCIDVGKEFGVATNTFFKPPCVSVYRCGGCCNSEGLQCVPTEESNITMQIMRIKPHQGQHIGEMSFLQHNKCECRPKKD = no binding
14-3 (ligand) GQNHHEVVKFMDVYQRSYCHPIETLVDIFQEFGVATNTFFKPSCVPLMRCGGCCNSEGLQCVPTEESNITMQIMRIKPHQGQHIGEMSFLQHNKCECRPKKD = binds

## Input I am curious: what binding result value has been reported for 82-15 (ligand) AHYNTEILKFMDVYQRSYCHPIETLVDIFQEFGVATNTFFKPPCVSVYRCGGCCNSEGLQCVPTEESNITMQIMRITVPLSQGPKPVTISFANHTSCRCMSKLD ?
## Output no binding

## Input I am curious: what binding result value has been reported for 73-12 (ligand) GQNHHEVVKSIDNEWRKTQCMPREVCIDVGKEYPDEIEYIFKPPCVSVYRCGGCCNSEGLQCMNTSTSYLSKTLFEITVPLSQGPKPVTISFLQHNKCECRPKKD ?
## Output no binding

## Input I am curious: what binding result value has been reported for 52-1 (ligand) AHYNTEILKSIDNEWRKTQCMPIETLVDIFQEFGVATNTFFKPPCVSVYRCGGCCNDEGLECVPTEESNITMQIMRIKPHQGQHIGEMSFLQHNKCECRPKKD ?
## Output no binding
